Quick reference for reverse-splicing fitness among some variants
B1: Azoarcus group I ribozyme (parent)
chain: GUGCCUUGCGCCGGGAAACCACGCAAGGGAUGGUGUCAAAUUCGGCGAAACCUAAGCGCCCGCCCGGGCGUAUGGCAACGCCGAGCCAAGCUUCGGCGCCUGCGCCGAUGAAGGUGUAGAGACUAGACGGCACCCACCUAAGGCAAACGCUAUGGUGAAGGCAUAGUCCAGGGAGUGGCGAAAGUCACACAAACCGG

Variants of: B1
Test: reverse-splicing fitness (ratio to wild type); higher = more active; in vitro selection; Mg2+ level not given
readout: reverse-splicing fitness

>>> meas_value("C82A A111G A120G A145G C150A C169A")
0.0103
>>> meas_value("C82A A111G A120G A145G C169A U176G")
0.00461
>>> meas_value("C82A A111U A120G A145G C150G C169A U176G")
0.00821
>>> meas_value("C82U A120G C150A C169A U176G")
0.00477
>>> meas_value("C82A A120U C150U C169U U176G")
0.00199
>>> meas_value("C82U A111C A120C C150U C169G U176G")
0.00553
>>> meas_value("A111U A120G C169A U176G")
0.00454
>>> meas_value("A111G A120U C150A C169U U176A")
0.0063
>>> meas_value("C82A A111G A145G C150U C169G")
0.0102
>>> meas_value("C82U A111U A145C C150U C169A")
0.00776
>>> meas_value("C82U A111G A145G U176C")
0.265
>>> meas_value("C82A A145U C169U U176A")
0.0117
>>> meas_value("C82U A145G C169G U176C")
0.0258
>>> meas_value("C82U A120G A145U C150U")
0.0176
>>> meas_value("C82U A111C A120U A145G C169U U176C")
0.00342
>>> meas_value("C82U A111C A120G C150U U176C")
0.0194
>>> meas_value("A111C A145G C150U C169A U176C")
0.0152
>>> meas_value("A111G A145G C169A")
0.053
>>> meas_value("A111U A120G A145U C150U C169U U176A")
0.0396
>>> meas_value("C82G A111G A120U C150A U176G")
0.00368
>>> meas_value("C82U A111G A120U A145C C169U")
0.00379
>>> meas_value("C82G A111C A120G A145G C169G")
0.0143
